# STUDY_TARGET: T1, recombinant human soluble CD73 protein (cloned huCD73 with C-terminal 6xHis tag) (human, UniProt P21589 27-547)
# T1 construct: also called recombinant CD73 protein; CD73 recombinant protein
# T1 sequence: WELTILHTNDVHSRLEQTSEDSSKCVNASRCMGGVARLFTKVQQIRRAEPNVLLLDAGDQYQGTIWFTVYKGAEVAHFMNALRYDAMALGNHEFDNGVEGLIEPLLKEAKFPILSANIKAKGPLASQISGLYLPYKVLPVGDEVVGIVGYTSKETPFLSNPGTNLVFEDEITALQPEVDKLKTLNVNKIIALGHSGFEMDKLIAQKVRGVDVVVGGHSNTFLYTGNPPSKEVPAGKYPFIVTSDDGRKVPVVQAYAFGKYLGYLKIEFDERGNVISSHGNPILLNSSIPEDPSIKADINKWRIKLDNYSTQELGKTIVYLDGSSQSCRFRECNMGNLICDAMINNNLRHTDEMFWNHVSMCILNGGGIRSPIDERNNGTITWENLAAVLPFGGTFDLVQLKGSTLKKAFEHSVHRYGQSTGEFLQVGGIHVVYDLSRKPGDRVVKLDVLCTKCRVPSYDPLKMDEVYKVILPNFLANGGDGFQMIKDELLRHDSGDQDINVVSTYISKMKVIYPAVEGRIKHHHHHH
# ASSAY: SPR, recombinant CD73 protein

# BINDER, binding result
records = [
    ("H4L3 (antibody, human IgG1, V domains shown, also called H4 variant) VH: QIQLVQSGAEVKKPGASVKVSCKASGYAFASYNMYWVRQAPGQSLEWIGYIDPYNGGSSYNLTFKGKATLTVDKSASTAYMELSSLRSEDTAVYYCARGYGNYKAWFAYWGQGTLVTVSS VL: DVQMTQSPSSLSASVGDRVTITCKASQSVSNDVAWYQQKPGKAPKLLIYYASTRYTGVPDRFSGSGYGTDFTFTISSLQPEDIATYYCQQDYSSLTFGQGTKLEIK", "binds"),
    ("H1L2 (antibody, human IgG1, V domains shown, also called H1 variant) VH: QIQLVQSGAEVKKPGASVKVSCKASGYTFTSYNMYWVRQAPGQRLEWMGYIDPYNGGSSYNLTFKGRVTITRDKSASTAYMELSSLRSEDTAVYYCARGYGNYKAWFAYWGQGTLVTVSS VL: DIQMTQSPSSLSASVGDRVTITCKASQSVSNDVAWYQQKPGKAPKLLIYYASTRYTGVPDRFSGSGYGTDFTFTISSLQPEDIATYYCQQDYSSLTFGQGTKLEIK", "binds"),
]
